These measurements were taken from ChEMBL document CHEMBL5724914.

Conditions: human gut metagenome, 24 h, 2 µM; also: call rule not given here
measurement name: Bacterial Biotransformation

A selection of reference data follows.
INSERT INTO measurements (compound, reading) VALUES
  ('CC(C)(C)NCC(O)COc1cccc2c1CC(O)C(O)C2 (configuration not stated)', 'Compound metabolized'),
  ('CN1CCN2c3ccccc3Cc3ccccc3C2C1 (configuration not stated)', 'Compound NOT metabolized'),
  ('CC(NC(C)(C)C)C(=O)c1cccc(Cl)c1 (configuration not stated)', 'Compound NOT metabolized'),
  ('O=P1(N(CCCl)CCCl)NCCCO1 (configuration not stated) [CYCLOPHOSPHAMIDE ANHYDROUS]', 'Compound metabolized'),
  ('CN1CCC(=C2c3ccccc3CC(=O)c3sccc32)CC1.O=C(O)/C=C/C(=O)O [KETOTIFEN FUMARATE]', 'Compound metabolized'),
  ('COC(=O)C(c1ccccc1)C1CCCCN1 (configuration not stated) [METHYLPHENIDATE]', 'Compound NOT metabolized'),
  ('Cc1cc(C)cc(OCC2CNC(=O)O2)c1 (configuration not stated)', 'Compound metabolized'),
  ('CC(C)(C)NC(=O)[C@H]1CC[C@H]2[C@@H]3CC[C@H]4NC(=O)C=C[C@]4(C)[C@H]3CC[C@]12C [FINASTERIDE]', 'Compound metabolized');

// Bacterial Biotransformation value for CCCCC(=O)O[C@]1(C(=O)CO)[C@@H](C)C[C@H]2[C@@H]3CCC4=CC(=O)C=C[C@]4(C)[C@@]3(F)[C@@H](O)C[C@@]21C [BETAMETHASONE VALERATE] : Compound metabolized

The compound identified as "CCc1oc2ccccc2c1C(=O)c1cc(Br)c(O)c(Br)c1" registered its Bacterial Biotransformation at Compound metabolized

For CN(CCOc1ccc(CC2SC(=O)NC2=O)cc1)c1ccccn1.O=C(O)/C=C\C(=O)O (configuration not stated) [ROSIGLITAZONE MALEATE] the compound record lists Bacterial Biotransformation as Compound metabolized

Note to self: Bacterial Biotransformation recorded for "C[C@]12CCC(=O)C=C1[C@@H]1C[C@@H]1[C@H]1[C@@H]3[C@@H]4C[C@@H]4[C@@]4(CCC(=O)O4)[C@@]3(C)CC[C@@H]12" was Compound metabolized

Value of measured Bacterial Biotransformation for the entry "CC(=O)Oc1ccc(C(c2ccc(OC(C)=O)cc2)c2ccccn2)cc1" : Compound metabolized

Quick note, Bacterial Biotransformation for COCCCC/C(=N\OCCN)c1ccc(C(F)(F)F)cc1.O=C(O)/C=C\C(=O)O [FLUVOXAMINE MALEATE] landed at Compound NOT metabolized

Short answer for CC(=O)OCC(=O)NCCCOc1cccc(CN2CCCCC2)c1 [ROXATIDINE ACETATE] : Bacterial Biotransformation was Compound metabolized

Field Bacterial Biotransformation (entry COc1cc2nc(N3CCN(C(=O)C4COc5ccccc5O4)CC3)nc(N)c2cc1OC.CS(=O)(=O)O (configuration not stated) [DOXAZOSIN MESYLATE] ) reads Compound metabolized

Lookup result for CC(CCc1ccccc1)NCC(O)c1ccc(O)c(C(N)=O)c1 (configuration not stated) ; measured Bacterial Biotransformation: Compound NOT metabolized
